- ASSAY_PROCEDURE: Inhibition of hPIV1 sialidase
- Set-up: species or system Human respirovirus 1
MEASUREMENT_NAME: IC50 (µM)

[1] CC(=O)N[C@H]1[C@H]([C@H](O)[C@H](O)CO)OC(C(=O)O)=C[C@@H]1OCCCC(N)=S
[2] CC(=O)N[C@H]1[C@H]([C@H](O)[C@H](O)CO)OC(C(=O)O)=C[C@@H]1O
[3] CC(=O)N[C@H]1[C@H]([C@H](O)[C@H](O)CO)OC(C(=O)O)=C[C@@H]1OCCC(N)=S
[4] CC(=O)N[C@H]1[C@H]([C@H](O)[C@H](O)CO)OC(C(=O)O)=C[C@@H]1OCC(N)=S
Give the ascending ranking of the items by reported IC50. Labels, ranked as asked. 4, 3, 1, 2
(4: 9 µM, 3: 68 µM, 1: 102 µM, 2: 300 µM)

Sourced from ChEMBL document CHEMBL1158164
